# system under test: 5HT-Transporter (Homo sapiens)
# Construct: Human platelet membranes (Oceanix Biosciences Corporation, Hanover, Md., USA) were thawed; tissue Oceanix Biosciences Corporation, Hanover, Md., USA; host or cells: human platelet membranes
# assay overview: Binding experiment for the 5HT-transporter ([3H]paroxetine, human platelet membranes)
# stated conditions: [3H]paroxetine 0.5 nM, read-out: h-5HTT pIC50 (converted)
measurement type: IC50 (µM)

C/C(=C\c1ccccc1)CN1CCN(c2nccn(CCOCc3ccccc3)c2=O)CC1 [10-3]
1.26
C/C(=C\c1ccccc1)CN1CCN(c2nccn(CC(=O)c3ccccc3)c2=O)CC1 [12-5]
3.98

====

# system under test: hα2C receptor (Homo sapiens)
# Construct: expressed in transfected cells; host or cells: CHO cells, stably transfected; membrane preparation
# assay overview: Radioligand binding experiment for α2C-adrenoceptor ([3H]raulwolscine, CHO cell membranes)
# stated conditions: [3H]raulwolscine binding, read-out: h-α2C pIC50 (converted)
// NB: equality with 20 nM counts as f; only IC50 strictly below is t

C/C(=C\c1ccccc1)CN1CCC(Nc2nccn(Cc3ccccc3C)c2=O)CC1 [5-10]
f
C/C(=C\c1ccccc1)CN1CCC(Nc2nccn(CCN3CCCCC3)c2=O)CC1 [2-3]
t
C/C(=C\c1ccccc1)CN1CCC(Nc2nccn(-c3ccc(C(=O)N4CCC(C)CC4)cc3)c2=O)CC1 [2-11]
t
C/C(=C\c1ccccc1)CN1CCC(N(C)c2nccn(Cc3ccc(CN(C)C)cc3)c2=O)CC1 [15-2]
t
C/C(=C\c1ccccc1)CN1CCC(Nc2nccn(CCCN(c3ccccc3)S(=O)(=O)c3ccccc3)c2=O)CC1 [1-168]
t
C/C(=C\c1ccccc1)CN1CCC(Nc2nccn(-c3ccc(CNCCN(C)C)cc3)c2=O)CC1 [1-105]
t
CC(=O)Cn1ccnc(NC2CCN(C/C=C/c3ccccc3)CC2)c1=O [16-24]
f

====

# system under test: 5HT-Transporter (Homo sapiens, UniProt P31645)
# Construct: Human platelet membranes (Oceanix Biosciences Corporation, Hanover, Md., USA) were thawed; tissue Oceanix Biosciences Corporation, Hanover, Md., USA; host or cells: human platelet membranes
# Sequence (P31645 whole entry): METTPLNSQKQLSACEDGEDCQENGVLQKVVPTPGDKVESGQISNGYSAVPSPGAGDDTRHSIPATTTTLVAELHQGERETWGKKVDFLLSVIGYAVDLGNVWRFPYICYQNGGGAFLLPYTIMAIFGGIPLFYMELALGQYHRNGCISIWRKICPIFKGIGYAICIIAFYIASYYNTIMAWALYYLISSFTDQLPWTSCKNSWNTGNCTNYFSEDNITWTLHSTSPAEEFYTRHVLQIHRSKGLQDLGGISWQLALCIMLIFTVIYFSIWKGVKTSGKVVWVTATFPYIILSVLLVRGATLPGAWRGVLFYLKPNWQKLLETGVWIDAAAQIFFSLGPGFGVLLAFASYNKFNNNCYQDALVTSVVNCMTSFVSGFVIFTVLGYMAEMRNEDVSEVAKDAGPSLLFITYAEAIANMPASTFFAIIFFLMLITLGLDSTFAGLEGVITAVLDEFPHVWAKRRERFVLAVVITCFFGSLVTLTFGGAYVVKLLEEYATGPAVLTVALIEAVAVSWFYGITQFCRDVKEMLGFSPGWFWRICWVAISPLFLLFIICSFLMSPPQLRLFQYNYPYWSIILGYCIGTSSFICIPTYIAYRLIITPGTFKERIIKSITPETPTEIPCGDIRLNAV
# assay overview: Binding experiment for the 5HT-transporter ([3H]paroxetine, human platelet membranes)
# stated conditions: [3H]paroxetine 0.5 nM
measurement type: h-5HTT pIC50

C/C(=C\c1ccccc1)CN1CCC(Nc2nccn(-c3cccc(CN(C)Cc4ccccc4)c3)c2=O)CC1
6.7
C/C(=C\c1ccccc1)CN1CCC(Nc2nccn(-c3ccc(CNC(=O)c4ccno4)cc3)c2=O)CC1
6.1
COC(=O)CCNCc1ccc(-n2ccnc(NC3CCN(C/C(C)=C/c4ccccc4)CC3)c2=O)cc1
6.0
C/C(=C\c1ccccc1)CN1CCC(Nc2nccn(-c3cccc(CN(C)CCN(C)C)c3)c2=O)CC1
6.5
C/C(=C\c1ccccc1)CN1CCC(Nc2nccn(-c3ccc(CNC(=O)c4ccc(F)cc4)cc3)c2=O)CC1
7.1
C/C(=C\c1ccccc1)CN1CCC(Nc2nccn(-c3ccc(CN4C(=O)c5ccccc5C4=O)cc3)c2=O)CC1
6.6
CC(=O)N1CCN(Cc2ccc(-n3ccnc(NC4CCN(C/C(C)=C/c5ccccc5)CC4)c3=O)cc2)CC1
5.1

====

# system under test: hα2C receptor (Homo sapiens)
# Construct: expressed in transfected cells; host or cells: CHO cells, stably transfected; membrane preparation
# Sequence (P18825 1-462): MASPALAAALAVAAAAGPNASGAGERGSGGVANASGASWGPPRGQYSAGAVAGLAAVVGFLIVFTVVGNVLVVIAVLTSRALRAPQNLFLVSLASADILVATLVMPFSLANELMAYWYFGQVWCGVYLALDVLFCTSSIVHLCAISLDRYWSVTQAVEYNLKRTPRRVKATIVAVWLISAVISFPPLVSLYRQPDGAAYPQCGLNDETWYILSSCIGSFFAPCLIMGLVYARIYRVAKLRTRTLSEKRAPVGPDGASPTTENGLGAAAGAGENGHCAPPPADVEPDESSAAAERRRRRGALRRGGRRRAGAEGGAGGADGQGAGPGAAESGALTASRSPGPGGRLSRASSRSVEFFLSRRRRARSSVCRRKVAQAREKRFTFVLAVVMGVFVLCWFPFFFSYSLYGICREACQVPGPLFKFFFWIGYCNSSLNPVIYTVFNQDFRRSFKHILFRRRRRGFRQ
# assay overview: Radioligand binding experiment for α2C-adrenoceptor ([3H]raulwolscine, CHO cell membranes)
# stated conditions: [3H]raulwolscine binding, read-out: h-α2C pIC50 (converted)
Recorded IC50 by entry
measurement type: IC50 (nM)

C/C(=C\c1ccccc1)CN1CCC(Nc2nccn(CC(=O)NCCCc3ccccc3)c2=O)CC1 [1-60]
10
C/C(=C\c1ccccc1)CN1CCC(Nc2nccn(CCCN(Cc3ccccc3)C(=O)Nc3ccccc3)c2=O)CC1 [1-123]
12.6
C/C(=C\c1ccccc1)CN1CCC(Nc2nccn(-c3ccc(C(=O)NC4CCN(Cc5ccccc5)CC4)cc3)c2=O)CC1 [1-129]
25.1
C/C(=C\c1ccccc1)CN1CCC(Nc2nccn(-c3ccc(N4CCCCC4)cc3)c2=O)CC1 [2-8]
10
C/C(=C\c1ccccc1)CN1CCC(Nc2nccn(-c3cccc(N4CCC(N5CCCC5)CC4)c3)c2=O)CC1 [2-18]
1.26
C/C(=C\c1ccccc1)CN1CCC(Nc2nccn(Cc3ccc(NCCN(C)C)cc3)c2=O)CC1 [1-104]
2.51
C/C(=C\c1ccccc1)CN1CCC(Nc2nccn(Cc3ccc(CNC(=O)c4ccncc4)cc3)c2=O)CC1 [1-154]
39.8
C/C(=C\c1ccccc1)CN1CCC(Nc2nccn(Cc3ccc(CNS(=O)(=O)c4ccc(C#N)cc4)cc3)c2=O)CC1 [1-161]
25.1
C/C(=C\c1ccccc1)CN1CCC(Nc2nccn(Cc3cccc(Br)c3)c2=O)CC1 [5-15]
25.1
C/C(=C\c1ccccc1)CN1CCC(Nc2nccn(Cc3cccc(NCCN(C)C)c3)c2=O)CC1 [1-103]
3.16
